Parameter PLB assay (% inhibition): see the listing below.
test system: secreted phospholipase B (PLB activity); assay: Radiometric assay, secreted PLB activity; format: biochemical, Cryptococcus neoformans H99; conditions: 250 μM
Outcome Measure: PLB assay (% inhibition) (%)

1. CCCCC[N+](CCCCC)(CCCCC)CCCCCCCCCCCC[N+](CCCCC)(CCCCC)CCCCC.[Br-].[Br-]	63
2. CCCC[N+](CCCC)(CCCC)CCCCCCCCCCCC[N+](CCCC)(CCCC)CCCC	85
3. CCCC[N+](CCCC)(CCCC)CCCCCCCCCC[N+](CCCC)(CCCC)CCCC	90
4. C(CCCCCC[N+]12CCC(CC1)CC2)CCCCC[N+]12CCC(CC1)CC2	5
5. CCCC[N+](CCCC)(CCCC)CCCCCCCCCCCCCCCC[N+](CCCC)(CCCC)CCCC	62
6. CC(C)CC[N+](CCCCCCCCCCCC[N+](CCC(C)C)(CCC(C)C)CCC(C)C)(CCC(C)C)CCC(C)C.[Cl-].[Cl-]	63
7. CCCCCCCCCCCCCCCC[P+](CCCC)(CCCC)CCCC	92

---

system: secreted phospholipase B (LPL/LPTA activities); experiment: Radiometric assay, secreted LPL and LPTA activities (Lyso assay); format: biochemical, Cryptococcus neoformans H99; conditions: 0.25 μM
Item-by-item account of Lyso assay (% inhibition) LPL
Outcome Measure: Lyso assay (% inhibition) LPL (%)

1. CCCC[P+](CCCC)(CCCC)CCCCCCCCCCCC[P+](CCCC)(CCCC)CCCC [Compound 1]	0
2. CCCCCCCCCCCCCCCC[P+](CCCC)(CCCC)CCCC	0
3. CCC[N+](CCC)(CCC)CCCCCCCCCCCC[N+](CCC)(CCC)CCC	0

---

test system: secreted phospholipase B (PLB activity); test: Radiometric assay, secreted PLB activity; assay type: biochemical, Cryptococcus neoformans H99; conditions: 25 μM; Secretory Cryptococcal H99 Phospholipase
In this section, each of the compounds is paired with its reported PLB, percentage inhibition of activity.
Outcome Measure: PLB, percentage inhibition of activity (%)

1. CCCC[P+](CCCC)(CCCC)CCCCCCCCCCCC[P+](CCCC)(CCCC)CCCC	35
2. CCCC[N+](CCCC)(CCCC)CCCCCCCCCC[N+](CCCC)(CCCC)CCCC	80
3. C[N+](C)(C)CCCCCCCCCC[N+](C)(C)C [Compound 4, reference compound]	0
4. CCCC[N+](CCCC)(CCCC)CCCCCCCCCCCC[N+](CCCC)(CCCC)CCCC	80

---

Reported Haemolytic assay (%) values follow for various compounds
system: erythrocyte; type: cell-based; settings: 88 μM; 37° C., 1 h
Outcome Measure: Haemolytic assay (%)

1) CCCCCCCCCCCCCCCC[N+](CCCC)(CCCC)CCCC	19
2) CCCCCCCCCCCCCCCC[P+](CCCC)(CCCC)CCCC	7
3) CCCC[P+](CCCC)(CCCC)CCCCCCCCCCCC[P+](CCCC)(CCCC)CCCC	0
4) CCCC[N+](CCCC)(CCCC)CCCCCCCCCCCC[N+](CCCC)(CCCC)CCCC	0

---

Each entry below lists one item and its recorded Membrane-associated LPTA activity, percentage of the control value.
Tested on: membrane-associated phospholipase B (LPL/LPTA activities)
Experiment: Radiometric assay, membrane-associated LPL/LPTA activities
Assay type: biochemical, Cryptococcus neoformans H99
Settings: pH 7.0; modifier 10 mM (Triton X-100 0.1% w/v)
Description: Fungal isolates and media. […] Isolate H99 was kindly supplied by Dr. Gary Cox (Duke University Medical Center, Durham, N.C., USA), and subcultured onto Sabouraud dextrose agar (SDA) at 30° C. […] Secreted LPL and LPTA activities were measured simultaneously in a reaction mixture containing 1-[^14C]palmitoyl lyso-PC (25,000 dpm) and carrier lyso-PC (final concentration 200 μM) in assay buffer. […] Under these conditions only PLB, LPL and LPTA activities (both secreted and cell-associated) were measured. […]
Outcome Measure: Membrane-associated LPTA activity, percentage of the control (%)

1) O=C(O)CN(CCN(CC(=O)O)CC(=O)O)CC(=O)O	100
2) O=C(O)CN(CCOCCOCCN(CC(=O)O)CC(=O)O)CC(=O)O	100
